Listing of entries alongside the reported pIC50.
Target: T1, cynomolgus IL-17A (cynomolgus, UniProt Q16552 24-155 (human entry), limits assumed)
T1 construct: also called cyno IL-17A; cynoIL-17A
T1 chain: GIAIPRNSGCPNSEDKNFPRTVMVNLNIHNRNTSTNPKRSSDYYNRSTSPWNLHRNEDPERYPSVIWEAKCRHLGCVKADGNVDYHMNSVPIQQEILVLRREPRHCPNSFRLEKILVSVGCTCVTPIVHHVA
Test: competition ELISA: mAb against biotinylated cyno IL-17A binding to coated IL-17RA-Fc
Note: pIC50 values are expressed as the negative base-10 logarithm of concentration in M.

mAb4168 (antibody, human IgG1, lambda, V domains shown, Framework-engineered mAb; also called engineered form of MOR8103) VH: QVQLQQSGPGLVKPSQTLSLTCAISGDSVSSSSAAWGWIRQSPSRGLEWLGRISYRSKWYNDYAVSVKSRITINPDTSKNQFSLQLNSVTPEDTAVYYCAREVDSTYYSYFDIWGQGTLVTVSS VL: EIVLTQSPATLSLSPGERATLSCRASQNVWAFYLAWYQQKPGQAPRLLIYGASNRATGIPARFSGSGSGTDFTLTISSLEPEDFAVYYCTQYYSSPSLTFGQGTKVEIKG : 9.12

// next item, pIC50 requested
pIC50 for mAb3584 (antibody, human IgG1, lambda, V domains shown, Framework-engineered mAb; also called engineered form of MOR8299) VH: QVQLQQSGPGLVKPSQTLSLTCAISGDSVSSSSAAWGWIRQSPSRGLEWLGRISYRSKWYNDYAVSVKSRITINPDTSKNQFSLQLNSVTPEDTAVYYCAREVDSIYYSYFDIWGQGTLVTVSS VL: EIVLTQSPATLSLSPGERATLSCRASQNVWAFYLAWYQQKPGQAPRLLIYGASNRATGIPARFSGSGSGTDFTLTISSLEPEDFAVYYCQQYRSTLSLTFGQGTKVEIKG is 9.31
